Some compounds, each annotated with its measured IC50.
system: A549; assay: cells; conditions: Homo sapiens, A549, 48 h
Description: Cytotoxicity against human A549 cells assessed as cell viability after 48 hrs by MTT assay

Please review the following examples before continuing.
compound=CCOC(=O)CC[C@@]1(C)[C@H]([C@@](C)(O)CO)CC[C@]2(C)[C@@H]1CC[C@@H]1[C@@H]([C@]3(C)CC[C@@H](C(C)(C)O)O3)CC[C@]12C subject_of_test=A549 result="> 50 µM"
compound=C=C(C)[C@@H]1CC[C@]2(C)[C@H](CC[C@@H]3[C@@H]([C@]4(C)CC[C@H](O)C(C)(C)O4)CC[C@]32C)[C@@]1(C)CCC(=O)OC subject_of_test=A549 result="> 50 µM"
compound=C=C(C)[C@@H]1CC[C@]2(C)[C@H](CC[C@@H]3[C@@H]([C@]4(C)CCC(=O)O4)CC[C@]32C)[C@@]1(C)CCC(=O)O subject_of_test=A549 result="> 50 µM"
compound=CC(C)(O)[C@H]1CC[C@@](C)([C@H]2CC[C@]3(C)[C@@H]2CC[C@@H]2[C@@]4(C)CC[C@@H](O)[C@@](C)(CO)[C@@H]4CC[C@]23C)O1 subject_of_test=A549 result="> 50 µM"
compound=CC1(C)C(=O)CC[C@]2(C)[C@H]3CC[C@@H]4[C@@H]([C@]5(C)C[C@H](O)C(=O)O5)CC[C@@]4(C)[C@]3(C)CC[C@@H]12 subject_of_test=A549 result="12.4 µM"

### Prompt Which IC50 value is on record for "CC(C)(O)[C@@H]1CC[C@@](C)([C@H]2CC[C@]3(C)[C@@H]2CC[C@@H]2[C@@]4(C)CC[C@@H](O)C(C)(C)[C@@H]4CC[C@]23C)O1" ?
### Response > 50 µM

### Prompt Which IC50 value is on record for "C=C(C)[C@@H]1CC[C@]2(C)[C@H](CC[C@@H]3[C@@H]([C@]4(C)CC[C@H](C(C)(C)O)O4)CC[C@]32C)[C@@]1(C)CCC(=O)OCC" ?
### Response 12.9 µM

### Prompt Which IC50 value is on record for "CC(C)(O)[C@@H]1CC[C@@](C)([C@H]2CC[C@]3(C)[C@@H]2CC[C@@H]2[C@@]4(C)CCC(=O)C(C)(C)[C@@H]4C[C@H](O)[C@]23C)O1" ?
### Response > 50 µM

### Prompt Which IC50 value is on record for "C=C(C)[C@@H]1CC[C@]2(C)[C@H](CC[C@@H]3[C@@H]([C@]4(C)CCC(=O)O4)CC[C@]32C)[C@@]1(C)CCC(=O)OC" ?
### Response > 50 µM

### Prompt Which IC50 value is on record for "CC1(C)[C@H](O)CC[C@]2(C)[C@H]3CC[C@@H]4[C@@H]([C@]5(C)C=CC(=O)O5)CC[C@@]4(C)[C@]3(C)CC[C@@H]12" ?
### Response > 50 µM

* * *

tested on: HepG2; test: Cytotoxicity against human HepG2 cells assessed as cell viability after 48 hrs by MTT assay; format: functional, cell-based; conditions: HepG2, 48 h
reported_metric: IC50 (µM)
Provide the reading as a plain figure in µM.

### Prompt Which IC50 value is on record for "C=C(CC[C@H](O)C(C)(C)O)[C@H]1CC[C@]2(C)[C@@H]1CC[C@@H]1[C@@]3(C)CC[C@@H](O)C(C)(C)[C@@H]3CC[C@]12C" ?
### Response 5.9

### Prompt Which IC50 value is on record for "CC(C)(O)[C@@H]1CC[C@@](C)([C@H]2CC[C@]3(C)[C@@H]2CC[C@@H]2[C@@]4(C)CC[C@@H](O)[C@@](C)(CO)[C@@H]4CC[C@]23C)O1" ?
### Response 20.2

### Prompt Which IC50 value is on record for "C=C(C)[C@@H]1CC[C@]2(C)[C@H](CC[C@@H]3[C@@H]([C@]4(C)CC[C@H](C(C)(C)O)O4)CC[C@]32C)[C@@]1(C)CCC(=O)OCC" ?
### Response 14.9

* * *

tested on: A549; assay: cells; conditions: Homo sapiens, A549, 48 h
pIC50: −log10 of the molar value.
reported_metric: pIC50

Please review the following examples before continuing.
compound=CCOC(=O)CC[C@@]1(C)[C@H]([C@@](C)(O)CO)CC[C@]2(C)[C@@H]1CC[C@@H]1[C@@H]([C@]3(C)CC[C@H](C(C)(C)O)O3)CC[C@]12C result="< 4.30"
compound=CC(C)(O)[C@@H]1CC[C@@](C)([C@H]2CC[C@]3(C)[C@@H]2CC[C@@H]2[C@@]4(C)CCC(=O)[C@@](C)(CO)[C@@H]4CC[C@]23C)O1 result=4.55
compound="CC1(C)[C@H](O)CC[C@]2(C)[C@H]3CC[C@@H]4[C@@H]([C@]5(C)CCC(=O)O5)CC[C@@]4(C)[C@]3(C)CC[C@@H]12 [CABRALEAHYDROXYLACTONE]" result="< 4.30"
compound=CCOC(=O)CC[C@@]1(C)[C@H]([C@](C)(O)CO)CC[C@]2(C)[C@@H]1CC[C@@H]1[C@@H]([C@]3(C)CC[C@@H](C(C)(C)O)O3)CC[C@]12C result="< 4.30"

# input for lookup
### Prompt Which pIC50 value is on record for "CC1(C)C(=O)CC[C@]2(C)[C@H]3CC[C@@H]4[C@@H]([C@]5(C)CCC(=O)O5)CC[C@@]4(C)[C@]3(C)CC[C@@H]12" ?
### Response < 4.30

* * *

Some molecules, each annotated with its measured IC50.
tested on: MCF7; test: Cytotoxicity against human MCF7 cells assessed as cell viability after 48 hrs by MTT assay; format: functional, cell-based; conditions: MCF7, 48 h

Please review the following examples before continuing.
molecule=CCOC(=O)CC[C@@]1(C)[C@H]([C@](C)(O)CO)CC[C@]2(C)[C@@H]1CC[C@@H]1[C@@H]([C@]3(C)CC[C@@H](C(C)(C)O)O3)CC[C@]12C reported_metric=IC50 result="> 50 µM"
molecule=CC(C)(O)[C@H]1CC[C@@](C)([C@H]2CC[C@]3(C)[C@@H]2CC[C@@H]2[C@@]4(C)CC[C@@H](O)[C@@](C)(CO)[C@@H]4CC[C@]23C)O1 reported_metric=IC50 result="23 µM"
molecule=CC(C)(O)[C@@H]1CC[C@@](C)([C@H]2CC[C@]3(C)[C@@H]2CC[C@@H]2[C@@]4(C)CCC(=O)C(C)(C)[C@@H]4C[C@H](O)[C@]23C)O1 reported_metric=IC50 result="> 50 µM"
molecule=C=C(CO)[C@@H]1CC[C@]2(C)[C@H](CC[C@@H]3[C@@H]([C@]4(C)CC[C@@H](C(C)(C)O)O4)CC[C@]32C)[C@@]1(C)CCC(=O)OC reported_metric=IC50 result="> 50 µM"
molecule=CCOC(=O)CC[C@@]1(C)[C@H]([C@@](C)(O)CO)CC[C@]2(C)[C@@H]1CC[C@@H]1[C@@H]([C@]3(C)CC[C@H](C(C)(C)O)O3)CC[C@]12C reported_metric=IC50 result="> 50 µM"

### Prompt Which IC50 value is on record for "CCOC(=O)CC[C@@]1(C)[C@H]([C@@](C)(O)CO)CC[C@]2(C)[C@@H]1CC[C@@H]1[C@@H]([C@]3(C)CC[C@@H](C(C)(C)O)O3)CC[C@]12C" ?
### Response > 50 µM

### Prompt Which IC50 value is on record for CC1(C)[C@H](O)CC[C@]2(C)[C@H]3CC[C@@H]4[C@@H]([C@]5(C)CCC(=O)O5)CC[C@@]4(C)[C@]3(C)CC[C@@H]12 [CABRALEAHYDROXYLACTONE] ?
### Response > 50 µM

### Prompt Which IC50 value is on record for "CC1(C)C(=O)CC[C@]2(C)[C@H]3CC[C@@H]4[C@@H]([C@]5(C)C[C@H](O)C(=O)O5)CC[C@@]4(C)[C@]3(C)CC[C@@H]12" ?
### Response 26.7 µM

### Prompt Which IC50 value is on record for "C=C(C)[C@@H]1CC[C@]2(C)[C@H](CC[C@@H]3[C@@H]([C@]4(C)CC[C@H](C(C)(C)O)O4)CC[C@]32C)[C@@]1(C)CCC(=O)OCC" ?
### Response 18.4 µM

### Prompt Which IC50 value is on record for "C=C(CC[C@H](O)C(C)(C)O)[C@H]1CC[C@]2(C)[C@@H]1CC[C@@H]1[C@@]3(C)CC[C@@H](O)C(C)(C)[C@@H]3CC[C@]12C" ?
### Response 16.7 µM

### Prompt Which IC50 value is on record for "CC1(C)[C@H](O)CC[C@]2(C)[C@H]3CC[C@@H]4[C@@H]([C@]5(C)C=CC(=O)O5)CC[C@@]4(C)[C@]3(C)CC[C@@H]12" ?
### Response > 50 µM
